B1: GAGE1 (parent)
chain: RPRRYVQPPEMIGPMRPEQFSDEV

# Variants of: B1
# assayExplanation: protein stability index of a GFP-peptide fusion (GPS, HEK-293T) (PSI 1-6); higher = more stable;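 also: lentivirally expressed fusions sorted by FACS into six bins by GFP to DsRed ratio, PSI derived from sequencing read proportions per bin multiplied by bin number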
# studyConditions: c terminus: a fixed tail appended
measurementLabel: protein stability index

The variant Q7G showed protein stability index equal to 3.3

The variant P2R showed protein stability index equal to 4.1

The variant P14F showed protein stability index equal to 3.54

The variant M11D showed protein stability index equal to 3.53

The variant R16S showed protein stability index equal to 3.87

Quick batch: protein stability index for everything below.
1. V24N
2. G13S
3. V6Q
4. G13F
5. V24K
6. G13K
7. Y5D
8. E10V

4.2
4.09
3.59
3.8
4.5
3.72
4.22
3.99

Quick batch: protein stability index for everything below.
1. P9K
2. F20V

1. 4.13
2. 4.71

The variant M15S showed protein stability index equal to 4.84
